Source listed as ChEMBL document CHEMBL1201862.

- System: CCRF-CEM
- protocol.details: NCI tumour cell line growth inhibition, 48 h
Active and inactive are the calls of the source. Cut-off read from the data, not from the text of the source: active = GI50 up to about 1.1 µM and inactive = higher.
Could you please pick one outcome from this set? active, inactive

Worked examples follow.
- compound: "CCCCN(CCCC)CC(C(=O)Nc1ccc([N+](=O)[O-])cc1[N+](=O)[O-])/C(C)=N\\NC(=S)NN (stereo unspecified)"
  group.label: "inactive"
- compound: "O=C(CC1C(=O)Nc2ccccc2S1(=O)=O)Nc1cccc(Cl)c1 (stereo unspecified)"
  group.label: "inactive"
- compound: "O=C1CCCNn2c(nc3ncccc3c2=O)N1"
  group.label: "inactive"
- compound: "CCOc1ccc2nc(NC(=O)C(=O)C(C#N)CC(C)(C)C=O)sc2c1 (stereo unspecified)"
  group.label: "inactive"

Q: Outcome? O=C1OC(C2Cc3ccc4c(c3C2=O)CCCC4)c2ccccc21 (stereo unspecified)
Ans: inactive

* * *

- Test system: HCT-116
- protocol.details: NCI tumour cell line growth inhibition, 48 h
Activity calls are given as the source filed them. Rule as the data show it: active = GI50 up to about 1.1 µM and inactive = higher.
Field 'call' accepts active, inactive

- compound: "CCOC(=O)N1CCN(c2ccc3c(C)cc(C)nc3n2)CC1"
  group.label: "inactive"
- compound: "O=C1/C(=C/c2ccccc2)CN(C(=O)/C=C/c2ccccc2)C/C1=C\\c1ccccc1"
  group.label: "active"
- compound: "CCOC(=O)C1C(=O)C(=O)N2CCc3c([nH]c4ccccc34)C12 (stereo not given)"
  group.label: "inactive"
- compound: "c1ccc(CSc2nnc3c4ccccc4c4ccccc4c3n2)cc1"
  group.label: "inactive"

// switching to the query compound
Q: Given CC(=O)O[C@H]1CC[C@H]2[C@@H]3CCC4=CC(=O)C=C[C@]4(O)[C@H]3CC[C@]12C , state the outcome it received in this test.
Ans: inactive

* * *

- Tested on: SK-MEL-2
- protocol.details: NCI tumour cell line growth inhibition, 48 h
Active and inactive are the calls of the source. No stated cut-off is given here; in the data, active = GI50 up to about 1.1 µM and inactive = higher.
The categories you may choose from are true (active), false (inactive)

A selection of reference data follows.
- smiles.repr: "CN(C)c1nc(N(C)C)nc(N(C)CN(C)c2nc(N(C)C)nc(N(C)C)n2)n1"
  group.label: "false"
- smiles.repr: "C/C(=N\\NC(=S)N1CCCCCC1)c1ccccn1"
  group.label: "true"
- smiles.repr: "CC(C)C(/C=C/c1ccc(Cl)cc1)=N\\NC(=O)N/N=C(/C=C/c1ccc(Cl)cc1)C(C)C"
  group.label: "false"
- smiles.repr: "CC(C)(C)OC(=O)N1CCc2c(n(C/C=C/c3ccccc3)[nH]c2=O)C1"
  group.label: "false"

Then this molecule:
Q: Look up the recorded call for O=C1/C(=C/c2ccccc2)CN(C(=O)/C=C/c2ccccc2)C/C1=C\c1ccccc1 in this test.
Ans: false

* * *

- Tested on: SNB-19
- protocol.details: NCI tumour cell line growth inhibition, 48 h
The source made the active and inactive calls. Cut-off read from the data, not from the text of the source: active = GI50 up to about 1.1 µM and inactive = higher.
Select the matching outcome among true for active, false for inactive

- molecule: "CC1=C(N(C)C)C(=O)c2nc3n(c2C1=O)CCC3OC(N)=O (stereo not given)"
  group.label: "false"

Q: Check the results log: what was the call for COc1ccc(C2(c3ccc(OC)cc3)OC(=O)c3cccc4cccc2c34)cc1 ?
Ans: false

Q: Returns: the outcome recorded for CCCN1CN(C(C(=O)N[C@@H]2C(=O)N3C2SC(C)(C)C3C(=O)O)c2ccccc2)CSC1=S (stereo not given in full) in this assay.
Ans: false

Q: For CC(=O)OC1C[C@H]2C(OC(=O)c3ccccc3)C3C4(OC(C)=O)COC4C[C@H](OC(C)=O)[C@@]3(C)C(OC(C)=O)[C@H](OC(C)=O)C(=C1C)C2(C)C (stereo not given in full) , what call appears in the results of this test?
Ans: false

Q: // param item: C[C@]12CC[C@H](O)CC1=CC[C@@H]1C2CC[C@]2(C)C(=O)N(N)C(=O)CC12 (stereo not given in full) ; yields the recorded call
Ans: false

Q: Per the assay record, what outcome was assigned to Cc1c2cc[n+](C)cc2c(C)c2c1[nH]c1ccc(Oc3ccccc3)cc12 ?
Ans: true

Q: Hi team, can someone confirm the assay call for O=c1ncc(F)cn1C1OC(CO)C(O)C1O (stereo not given) ?
Ans: false

Q: Which result was noted for this molecule in the test: O=C1CCC(c2ccccc2)(c2ccccc2)CC1
Ans: false

Q: Outcome? C=C(CN(C)C)C(=O)c1ccc(C)cc1C
Ans: false

Q: Please let me know the test result on file for CC(C)N(C(=O)C12C3C4C1C1C4(C#N)C3C12C(=O)O)C(C)C (stereo not given) .
Ans: false
